Target: Sodium-dependent noradrenaline transporter (Homo sapiens, UniProt P23975)
Sequence (P23975 whole entry): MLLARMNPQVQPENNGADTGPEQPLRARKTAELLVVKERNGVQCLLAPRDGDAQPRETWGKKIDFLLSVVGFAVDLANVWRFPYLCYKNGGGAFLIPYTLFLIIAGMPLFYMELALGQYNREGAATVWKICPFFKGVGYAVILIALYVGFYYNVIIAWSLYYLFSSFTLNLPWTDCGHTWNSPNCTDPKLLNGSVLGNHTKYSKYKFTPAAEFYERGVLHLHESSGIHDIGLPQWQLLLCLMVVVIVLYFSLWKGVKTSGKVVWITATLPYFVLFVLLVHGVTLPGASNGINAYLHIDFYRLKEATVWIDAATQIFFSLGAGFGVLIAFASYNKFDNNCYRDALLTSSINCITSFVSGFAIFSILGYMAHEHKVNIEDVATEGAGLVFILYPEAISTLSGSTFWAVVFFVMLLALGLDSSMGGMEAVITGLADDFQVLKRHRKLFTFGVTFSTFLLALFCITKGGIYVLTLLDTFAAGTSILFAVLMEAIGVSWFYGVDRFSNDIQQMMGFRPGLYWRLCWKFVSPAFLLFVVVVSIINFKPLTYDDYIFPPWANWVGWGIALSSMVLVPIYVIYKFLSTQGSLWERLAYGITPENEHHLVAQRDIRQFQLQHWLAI
Assay: Displacement of [N-methyl-3H]nisoxetine from human recombinant NET expressed in pig LLCPK cells after 2 hrs by liquid scintillation counting
Type: cell-based
pKi: −log10 of the molar value.
Below, each entry is listed alongside its reported pKi.
result_type: pKi

| compound | assay_result |
| --- | --- |
| C=CCC(OC)[C@]12CNCC[C@]1(c1ccc(Cl)c(Cl)c1)C2 (mixture of isomers; form 2) | 8.40 |
| OC[C@@]12CNCC[C@]1(c1ccc(Cl)c(Cl)c1)C2 (relative stereo; 15) | 7.00 |
| COC[C@@]12CNCC[C@]1(c1ccc(OC(F)(F)F)cc1)C2 (racemic) | 5.50 |

---

Biological target: Sodium-dependent dopamine transporter (Homo sapiens, UniProt Q01959)
Sequence (Q01959 whole entry): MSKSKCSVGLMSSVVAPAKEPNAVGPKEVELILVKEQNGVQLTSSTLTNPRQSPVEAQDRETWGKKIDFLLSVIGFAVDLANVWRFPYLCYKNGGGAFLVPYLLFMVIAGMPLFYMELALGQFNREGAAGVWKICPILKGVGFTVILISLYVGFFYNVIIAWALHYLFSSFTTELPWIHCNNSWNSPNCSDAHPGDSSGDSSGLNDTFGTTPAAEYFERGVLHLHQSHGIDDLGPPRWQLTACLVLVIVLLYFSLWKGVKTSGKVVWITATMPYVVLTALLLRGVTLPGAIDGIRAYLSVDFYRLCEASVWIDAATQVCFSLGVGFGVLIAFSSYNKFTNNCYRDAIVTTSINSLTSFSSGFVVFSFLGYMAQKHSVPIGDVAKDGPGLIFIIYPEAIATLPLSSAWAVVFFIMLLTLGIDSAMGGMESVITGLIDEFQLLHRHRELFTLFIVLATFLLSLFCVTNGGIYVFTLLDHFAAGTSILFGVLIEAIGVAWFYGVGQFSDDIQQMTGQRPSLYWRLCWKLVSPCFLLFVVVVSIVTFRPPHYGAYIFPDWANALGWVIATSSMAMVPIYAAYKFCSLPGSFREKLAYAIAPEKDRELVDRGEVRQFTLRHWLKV
Assay: Displacement of [N-methyl-3H]WIN-35428 from human recombinant DAT expressed in pig LLCPK cells after 2 hrs by liquid scintillation counting
Type: cell-based
Each entry below carries its reported log10 of Ki.
result_type: log10 of Ki (log10 of the value in nM)

| molecule | assay_target | assay_result |
| --- | --- | --- |
| C=CCC(OC)[C@]12CNCC[C@]1(c1ccc(Cl)c(Cl)c1)C2 (mixture of isomers; form 1) | Sodium-dependent dopamine transporter (Homo sapiens, UniProt Q01959) | 0.10 |
| COC[C@@]12CNCC[C@]1(c1ccc(Cl)c(C(F)(F)F)c1)C2 (racemic) | Sodium-dependent dopamine transporter (Homo sapiens, UniProt Q01959) | 3.50 |
| Clc1ccc([C@@H]2CCNC[C@@]23CCCOC3)cc1Cl | Sodium-dependent dopamine transporter (Homo sapiens, UniProt Q01959) | 1.10 |
| Clc1ccc([C@@]23CCNC[C@@H]2C3)cc1Cl (single isomer, unassigned) | Sodium-dependent dopamine transporter (Homo sapiens, UniProt Q01959) | 1.40 |
| OC[C@@]12CNCC[C@]1(c1ccc(Cl)c(Cl)c1)C2 (racemic) | Sodium-dependent dopamine transporter (Homo sapiens, UniProt Q01959) | 2.30 |
| COC[C@@]12CNCC[C@]1(c1ccc(C(F)(F)F)c(Cl)c1)C2 (racemic) | Sodium-dependent dopamine transporter (Homo sapiens, UniProt Q01959) | 3.20 |
| COC[C@@]12CNC[C@H](OC)[C@]1(c1ccc(Cl)c(Cl)c1)C2 (racemic) | Sodium-dependent dopamine transporter (Homo sapiens, UniProt Q01959) | 2.70 |
| Clc1ccc([C@@]23CCNC[C@@H]2C3)cc1Cl (racemic) | Sodium-dependent dopamine transporter (Homo sapiens, UniProt Q01959) | 1.70 |
| Clc1ccc([C@]23CNCC[C@H]2C3)cc1Cl (racemic) | Sodium-dependent dopamine transporter (Homo sapiens, UniProt Q01959) | 1.90 |
| COC[C@@]12CCNC[C@]1(c1ccc(Cl)c(Cl)c1)C2 (relative stereo) | Sodium-dependent dopamine transporter (Homo sapiens, UniProt Q01959) | 1.80 |
| COC[C@@]12CCNC[C@]1(c1ccc(Cl)c(Cl)c1)C2 (racemic) | Sodium-dependent dopamine transporter (Homo sapiens, UniProt Q01959) | 2.10 |
| CCOC(=O)[C@@]12CNCC[C@]1(c1ccc(Cl)c(Cl)c1)C2 (racemic) | Sodium-dependent dopamine transporter (Homo sapiens, UniProt Q01959) | 0.70 |
| COC[C@@]12CNCC[C@]1(c1ccc3ccccc3c1)C2 (racemic) | Sodium-dependent dopamine transporter (Homo sapiens, UniProt Q01959) | 1.50 |
| COC[C@@]12CNCC[C@]1(c1ccc(Cl)c(Cl)c1)C2 (racemic) [GSK1360707] | Sodium-dependent dopamine transporter (Homo sapiens, UniProt Q01959) | 1.40 |
| OC[C@@]12CNCC[C@]1(c1ccc(Cl)c(Cl)c1)C2 (relative stereo; 15) | Sodium-dependent dopamine transporter (Homo sapiens, UniProt Q01959) | 1.90 |
| COC[C@@H]1[C@@H]2CCNC[C@]12c1ccc(Cl)c(Cl)c1 (racemic) | Sodium-dependent dopamine transporter (Homo sapiens, UniProt Q01959) | 2.10 |
| COC[C@@]12CNC[C@@H](OC)[C@]1(c1ccc(Cl)c(Cl)c1)C2 (racemic) | Sodium-dependent dopamine transporter (Homo sapiens, UniProt Q01959) | 2.60 |
| COC[C@@]12CNC[C@H](F)[C@]1(c1ccc(Cl)c(Cl)c1)C2 (racemic) | Sodium-dependent dopamine transporter (Homo sapiens, UniProt Q01959) | 2.00 |
| C=CCC(OC)[C@]12CNCC[C@]1(c1ccc(Cl)c(Cl)c1)C2 (mixture of isomers; form 2) | Sodium-dependent dopamine transporter (Homo sapiens, UniProt Q01959) | 0.20 |
| Clc1ccc([C@]23CCNC[C@@]2(COCC2CC2)C3)cc1Cl (relative stereo; 35) | Sodium-dependent dopamine transporter (Homo sapiens, UniProt Q01959) | 1.80 |
| NC(=O)[C@@]12CNCC[C@]1(c1ccc(Cl)c(Cl)c1)C2 (racemic) | Sodium-dependent dopamine transporter (Homo sapiens, UniProt Q01959) | 2.40 |
| COC[C@@]12CN(C(C)C)CC[C@]1(c1ccc(Cl)c(Cl)c1)C2 | Sodium-dependent dopamine transporter (Homo sapiens, UniProt Q01959) | 3.10 |
| FC(F)(F)COC[C@@]12CNCC[C@]1(c1ccc(Cl)c(Cl)c1)C2 (racemic) | Sodium-dependent dopamine transporter (Homo sapiens, UniProt Q01959) | 1.60 |
| CCOC[C@@]12CNCC[C@]1(c1ccc(Cl)c(Cl)c1)C2 (relative stereo; 30) | Sodium-dependent dopamine transporter (Homo sapiens, UniProt Q01959) | 1.80 |
| Clc1ccc([C@]23CCNC[C@@]2(COCC2CC2)C3)cc1Cl (relative stereo; 34) | Sodium-dependent dopamine transporter (Homo sapiens, UniProt Q01959) | 0.50 |
| COC[C@@]12CN[C@@H](C)C[C@]1(c1ccc(Cl)c(Cl)c1)C2 (racemic) | Sodium-dependent dopamine transporter (Homo sapiens, UniProt Q01959) | 1.60 |
| COC[C@@]12CNCC[C@]1(c1ccc(Cl)c(Cl)c1)C2 (relative stereo; 17) [GSK1360707] | Sodium-dependent dopamine transporter (Homo sapiens, UniProt Q01959) | 1.00 |
| COC[C@@]12CNCC[C@]1(c1ccc3ccccc3c1)C2 (single isomer, unassigned; 27) | Sodium-dependent dopamine transporter (Homo sapiens, UniProt Q01959) | 2.00 |
| Clc1ccc([C@]23CNCC[C@H]2C3)cc1Cl (relative stereo; 5) | Sodium-dependent dopamine transporter (Homo sapiens, UniProt Q01959) | 2.00 |
| CC(=O)[C@@]12CNCC[C@]1(c1ccc(Cl)c(Cl)c1)C2 (relative stereo) | Sodium-dependent dopamine transporter (Homo sapiens, UniProt Q01959) | 0.60 |
| COC[C@@]12CNCC[C@]1(c1ccc(F)c(Cl)c1)C2 (racemic) | Sodium-dependent dopamine transporter (Homo sapiens, UniProt Q01959) | 2.20 |
| CC#CNC(=O)[C@@]12CNCC[C@]1(c1ccc(Cl)c(Cl)c1)C2 (racemic) | Sodium-dependent dopamine transporter (Homo sapiens, UniProt Q01959) | 2.20 |
| Clc1ccc([C@]23CCN4CC[C@]2(C4)C3)cc1Cl (single isomer, unassigned; 50) | Sodium-dependent dopamine transporter (Homo sapiens, UniProt Q01959) | 2.40 |
| CCOC[C@@]12CNCC[C@]1(c1ccc(Cl)c(Cl)c1)C2 (racemic) | Sodium-dependent dopamine transporter (Homo sapiens, UniProt Q01959) | 0.80 |
| Clc1ccc([C@]23CCNC[C@@]2(COCC2CC2)C3)cc1Cl (racemic) | Sodium-dependent dopamine transporter (Homo sapiens, UniProt Q01959) | 1.10 |
| COC[C@@]12CNCC[C@]1(c1ccc(Cl)c(Cl)c1)C2 (relative stereo; 18) [GSK1360707] | Sodium-dependent dopamine transporter (Homo sapiens, UniProt Q01959) | 2.00 |
| Clc1ccc([C@@]23CCNC[C@@H]2C3)cc1Cl (relative stereo) | Sodium-dependent dopamine transporter (Homo sapiens, UniProt Q01959) | 1.70 |
